log10(IC50) by entry:
tgt: EGFR L858R/C797S (Homo sapiens, UniProt P00533, C797S/L858R)
Sequence (P00533 25-1210 C797S/L858R): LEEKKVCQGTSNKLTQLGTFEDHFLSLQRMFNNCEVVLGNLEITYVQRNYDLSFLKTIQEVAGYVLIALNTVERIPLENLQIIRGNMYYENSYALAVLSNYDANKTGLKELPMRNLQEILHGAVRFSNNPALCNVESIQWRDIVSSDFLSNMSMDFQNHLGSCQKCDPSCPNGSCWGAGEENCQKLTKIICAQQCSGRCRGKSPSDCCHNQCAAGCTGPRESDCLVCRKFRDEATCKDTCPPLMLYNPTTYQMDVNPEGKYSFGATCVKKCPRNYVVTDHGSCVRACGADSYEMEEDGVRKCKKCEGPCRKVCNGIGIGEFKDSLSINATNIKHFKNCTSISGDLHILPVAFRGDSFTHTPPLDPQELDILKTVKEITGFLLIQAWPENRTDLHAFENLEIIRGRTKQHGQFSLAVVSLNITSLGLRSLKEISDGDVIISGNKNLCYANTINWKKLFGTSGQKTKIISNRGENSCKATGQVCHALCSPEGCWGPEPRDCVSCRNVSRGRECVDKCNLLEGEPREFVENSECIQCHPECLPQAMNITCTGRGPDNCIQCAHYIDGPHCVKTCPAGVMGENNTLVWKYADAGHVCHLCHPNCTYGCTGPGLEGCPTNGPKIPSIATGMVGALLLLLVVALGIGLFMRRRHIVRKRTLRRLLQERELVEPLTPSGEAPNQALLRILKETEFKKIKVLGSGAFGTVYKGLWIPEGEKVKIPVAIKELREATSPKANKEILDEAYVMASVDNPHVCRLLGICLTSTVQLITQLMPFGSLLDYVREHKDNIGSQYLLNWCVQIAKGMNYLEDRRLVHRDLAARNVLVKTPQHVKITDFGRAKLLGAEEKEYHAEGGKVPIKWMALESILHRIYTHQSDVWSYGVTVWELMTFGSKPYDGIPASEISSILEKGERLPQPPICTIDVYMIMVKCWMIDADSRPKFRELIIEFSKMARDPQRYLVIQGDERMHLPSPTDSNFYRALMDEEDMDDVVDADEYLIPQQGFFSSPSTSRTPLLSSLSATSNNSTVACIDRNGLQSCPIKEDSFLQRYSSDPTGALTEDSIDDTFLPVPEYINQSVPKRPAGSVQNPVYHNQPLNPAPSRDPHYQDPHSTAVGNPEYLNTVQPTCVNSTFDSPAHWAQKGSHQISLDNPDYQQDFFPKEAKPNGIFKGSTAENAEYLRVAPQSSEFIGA
assay: Biochemical EGFR kinase assay (Lance Ultra TR-FRET), double mutant L858R/C797S
reported.conditions: IC50 L858R/C797S (nM) 100 μM ATP, 100 μM ATP
Use the decimal logarithm of IC50 (nM).

Query :: Bench note: what log10(IC50) did `CN(C)S(=O)(=O)n1cc(-c2nccc(Nc3cc(N[C@H]4CC[C@@](C)(O)CC4)c(-c4cc(C(F)(F)F)n(C)n4)cn3)n2)cn1` show?
Result :: 1.80

Query :: State the recorded log10(IC50) for this entry: O=S(=O)(C1CC1)n1cc(-c2nccc(Nc3cc(OC4CCC(O)C4)c(-c4ccn(C(F)F)n4)cn3)n2)cn1 (stereo not drawn)
Result :: 2.78

Query :: Param item = `C[C@]1(O)CC[C@@H](Nc2cc(Nc3ccnc(-c4cnn(S(=O)(=O)C5CC5)c4)n3)ncc2-c2ccn(C(F)F)n2)CC1` ; retrieve measured log10(IC50).
Result :: 0.43

Query :: Sample `CC(C)(O)[C@H]1CC[C@@H](Nc2cc(Nc3ccnc(-c4cnn(S(=O)(=O)C5CC5)c4)n3)ncc2-c2cc3n(n2)CCCC3)CC1` — what was its log10(IC50)?
Result :: 0.94

Query :: # lookup: log10(IC50) of O=S(=O)(C1CC1)n1cc(-c2nccc(Nc3cc(NC4CCCC4O)c(-c4ccn(C(F)F)n4)cn3)n2)cn1 (stereo not drawn)
Result :: 2.77

Query :: Which log10(IC50) is listed for `O=S(=O)(C1CC1)n1cc(-c2nccc(Nc3cc(N[C@H]4CC[C@@H](NCCF)CC4)c(-c4ccn(C(F)F)n4)cn3)n2)cn1` ?
Result :: 0.88
